experiment: in vitro; conditions: human, hela cells, % viability
MEASURED ATTRIBUTE: viability at 28.5 h, 10 µM (%)

[
  {
    "MOLECULE": "CCCCNc1cc(N2CCN(c3cnn(C)c3)C(=O)C2)nc(N)n1",
    "MEASURED ATTRIBUTE": "viability at 28.5 h, 10 µM",
    "VALUE UNIT": "%",
    "VALUE OBSERVED": 87.8
  },
  {
    "MOLECULE": "COC(=O)C1ON2CCCCC2C1(O)C(F)(F)F (stereo not shown)",
    "MEASURED ATTRIBUTE": "viability at 28.5 h, 10 µM",
    "VALUE UNIT": "%",
    "VALUE OBSERVED": 90.6
  },
  {
    "MOLECULE": "CC1(C)NC(=O)N(CC(O)CNC23CC4CC(CC(C4)C2)C3)C1=O (stereo not shown)",
    "MEASURED ATTRIBUTE": "viability at 28.5 h, 10 µM",
    "VALUE UNIT": "%",
    "VALUE OBSERVED": 95.5
  },
  {
    "MOLECULE": "CCN(Cc1ccncc1)C(=O)NCc1ccc(F)cc1",
    "MEASURED ATTRIBUTE": "viability at 28.5 h, 10 µM",
    "VALUE UNIT": "%",
    "VALUE OBSERVED": 96.4
  },
  {
    "MOLECULE": "CN(C)c1ccc(-n2ccn(S(=O)(=O)c3ccc(Oc4ccccc4)cc3)c2=O)cc1",
    "MEASURED ATTRIBUTE": "viability at 28.5 h, 10 µM",
    "VALUE UNIT": "%",
    "VALUE OBSERVED": 89.3
  },
  {
    "MOLECULE": "CN(C)c1ncc(-c2ccc(F)cc2)c(C2CCCN2C(=O)c2nccc3ccccc23)n1 (stereo not shown)",
    "MEASURED ATTRIBUTE": "viability at 28.5 h, 10 µM",
    "VALUE UNIT": "%",
    "VALUE OBSERVED": 84.3
  },
  {
    "MOLECULE": "Cc1ccc(S(=O)(=O)N(CC(=O)N2CCN(C)CC2)Cc2ccc(Cl)cc2Cl)cc1",
    "MEASURED ATTRIBUTE": "viability at 28.5 h, 10 µM",
    "VALUE UNIT": "%",
    "VALUE OBSERVED": 100
  },
  {
    "MOLECULE": "CCOC(=O)c1csc(C2CCCN2C(=O)c2ccsc2)n1 (stereo not shown)",
    "MEASURED ATTRIBUTE": "viability at 28.5 h, 10 µM",
    "VALUE UNIT": "%",
    "VALUE OBSERVED": 77.5
  },
  {
    "MOLECULE": "Cn1cc(C2CCCCCN2Cc2cc(Cl)ccc2O)cn1 (stereo not shown)",
    "MEASURED ATTRIBUTE": "viability at 28.5 h, 10 µM",
    "VALUE UNIT": "%",
    "VALUE OBSERVED": 100
  },
  {
    "MOLECULE": "O=C(Nc1ccccc1[N+](=O)[O-])C1Cc2ccccc2CN1S(=O)(=O)c1ccc(F)cc1 (stereo not shown)",
    "MEASURED ATTRIBUTE": "viability at 28.5 h, 10 µM",
    "VALUE UNIT": "%",
    "VALUE OBSERVED": 102
  },
  {
    "MOLECULE": "Cc1noc(CN2CCN(CCc3ccc4c(c3)CCO4)CC2)n1",
    "MEASURED ATTRIBUTE": "viability at 28.5 h, 10 µM",
    "VALUE UNIT": "%",
    "VALUE OBSERVED": 102
  },
  {
    "MOLECULE": "COc1ccc(-c2nc(NC(=O)C3CCC(OC)CC3)cnc2-c2cccc(C)c2)cn1 (stereo not shown)",
    "MEASURED ATTRIBUTE": "viability at 28.5 h, 10 µM",
    "VALUE UNIT": "%",
    "VALUE OBSERVED": 109
  },
  {
    "MOLECULE": "COc1ccccc1-c1ccc(CC2(C(=O)NCCc3ccccc3)CCOCC2)cc1",
    "MEASURED ATTRIBUTE": "viability at 28.5 h, 10 µM",
    "VALUE UNIT": "%",
    "VALUE OBSERVED": 102
  },
  {
    "MOLECULE": "CC(NC(=O)N(Cc1c[nH]c(-c2ccccc2)n1)CC(C)(C)CN)c1cccc2ccccc12 (stereo not shown) [CBK026801C]",
    "MEASURED ATTRIBUTE": "viability at 28.5 h, 10 µM",
    "VALUE UNIT": "%",
    "VALUE OBSERVED": 96.3
  },
  {
    "MOLECULE": "CC(=O)N1c2ccc(-c3cn4cc(C)ccc4n3)cc2CC1C (stereo not shown)",
    "MEASURED ATTRIBUTE": "viability at 28.5 h, 10 µM",
    "VALUE UNIT": "%",
    "VALUE OBSERVED": 82.5
  },
  {
    "MOLECULE": "CC1CCCCN1C(=O)CCn1c(-c2ccncc2)cc2cccnc21 (stereo not shown)",
    "MEASURED ATTRIBUTE": "viability at 28.5 h, 10 µM",
    "VALUE UNIT": "%",
    "VALUE OBSERVED": 105
  },
  {
    "MOLECULE": "FC(F)(F)c1ccc2c(c1)N(CCCN1CCN(C34CC5CC(CC(C5)C3)C4)CC1)c1ccccc1S2",
    "MEASURED ATTRIBUTE": "viability at 28.5 h, 10 µM",
    "VALUE UNIT": "%",
    "VALUE OBSERVED": 102
  },
  {
    "MOLECULE": "CN(CC(=O)N(C)CC(F)(F)F)Cc1cccnc1",
    "MEASURED ATTRIBUTE": "viability at 28.5 h, 10 µM",
    "VALUE UNIT": "%",
    "VALUE OBSERVED": 89.1
  },
  {
    "MOLECULE": "O=C(O)c1ccc(OC(=O)C2CCCC2)cc1",
    "MEASURED ATTRIBUTE": "viability at 28.5 h, 10 µM",
    "VALUE UNIT": "%",
    "VALUE OBSERVED": 103
  }
]
